# measurement-target: Histone deacetylase 11 (Homo sapiens)
# Sequence (Q96DB2 whole entry): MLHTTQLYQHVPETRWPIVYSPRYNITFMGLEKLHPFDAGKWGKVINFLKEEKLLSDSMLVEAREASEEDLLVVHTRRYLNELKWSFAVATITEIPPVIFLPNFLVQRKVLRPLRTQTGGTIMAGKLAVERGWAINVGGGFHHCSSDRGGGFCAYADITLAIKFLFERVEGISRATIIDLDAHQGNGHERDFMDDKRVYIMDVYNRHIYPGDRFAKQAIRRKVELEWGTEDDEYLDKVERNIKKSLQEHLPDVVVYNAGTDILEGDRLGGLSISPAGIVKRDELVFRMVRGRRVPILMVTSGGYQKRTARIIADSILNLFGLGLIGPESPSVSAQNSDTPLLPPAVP
# assay-info: Inhibition of human recombinant HDAC11 expressed in baculovirus/sf9 cells using RHKKAc as substrate
For each entry below, report its pIC50 value.
Expect pIC50 as a plain number equal to -log10 of the molar concentration.

Asked: Please report the recorded pIC50 for `CCc1nc2cc(/C=C/C(=O)NO)ccc2c(=O)n1CCc1ccc(OC)cc1` .
Given back: 5.41

Asked: Query: pIC50; subject: `CCc1nc2cc(Cc3ccc(C(=O)NO)cc3)ccc2c(=O)n1CCc1ccccc1`
Given back: 5.88

Asked: Which value of pIC50 has been reported for `CCc1nc2cc(/C=C/C(=O)NO)ccc2c(=O)n1CCc1ccccc1` in the records?
Given back: 5.53

Asked: Dear colleague, I am looking for the recorded pIC50 of the following molecule: `CCc1nc2ccc(Cc3ccc(C(=O)NO)cc3)cc2c(=O)n1CCc1ccccc1`
Given back: 6.18

Asked: Query (molecule): `Cc1nc2cc(/C=C/C(=O)NO)ccc2c(=O)n1CCc1c[nH]c2ccccc12` ; field requested: pIC50
Given back: 5.92

Asked: So what's the measured pIC50 for this one? `CCc1nc2cc(/C=C/C(=O)NO)ccc2c(=O)n1CCc1ccc(F)cc1`
Given back: 5.37

Asked: Any idea what pIC50 was measured for `Cc1nc2cc(/C=C/C(=O)NO)ccc2c(=O)n1CCc1ccccc1` ?
Given back: 5.39

Asked: Need pIC50 of `CCc1nc2cc(/C=C/C(=O)NO)ccc2c(=O)n1CCCc1ccccc1` , thanks.
Given back: 5.25

* * *

# measurement-target: Histone deacetylase 8 (Homo sapiens)
# Sequence (Q9BY41 whole entry): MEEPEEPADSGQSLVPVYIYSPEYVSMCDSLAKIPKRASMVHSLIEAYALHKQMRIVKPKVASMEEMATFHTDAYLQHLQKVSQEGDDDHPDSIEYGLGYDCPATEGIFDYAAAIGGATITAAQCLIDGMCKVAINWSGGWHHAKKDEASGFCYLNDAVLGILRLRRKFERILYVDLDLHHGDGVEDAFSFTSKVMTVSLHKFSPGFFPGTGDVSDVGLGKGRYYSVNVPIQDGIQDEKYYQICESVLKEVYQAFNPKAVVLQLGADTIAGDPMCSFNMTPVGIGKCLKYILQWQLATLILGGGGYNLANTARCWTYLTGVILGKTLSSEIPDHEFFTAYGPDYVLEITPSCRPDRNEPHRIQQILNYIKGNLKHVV
# assay-info: Inhibition of human recombinant HDAC8 expressed in baculovirus/sf9 cells using RHKAcKAc as substrate
So I've got a bunch of compounds here, and I need their pIC50 values.
Conceptually, pIC50 converts a concentration in mol/L into minus its log10.

Asked: Entry `Cc1nc2cc(/C=C/C(=O)NO)ccc2c(=O)n1-c1ccccc1` has what pIC50?
Given back: 5.41

Asked: pIC50 for `CCc1nc2cc(/C=C/C(=O)NO)ccc2c(=O)n1CCc1ccc(OC)cc1` ?
Given back: 6.23

Asked: Entry under review: `CCc1nc2cc(/C=C/C(=O)NO)c(F)cc2c(=O)n1CCc1ccccc1` . Reported pIC50?
Given back: 5.85

Asked: Item `CCc1nc2ccc(Cc3ccc(C(=O)NO)cc3)cc2c(=O)n1CCc1ccccc1` has what recorded pIC50?
Given back: 7.00

Asked: // lookup pIC50 for `CCc1nc2cc(Cl)c(/C=C/C(=O)NO)cc2c(=O)n1CCc1ccccc1`
Given back: 5.73

Asked: Fill in the blank: the reported pIC50 of `Cc1nc2cc(/C=C/C(=O)NO)ccc2c(=O)n1CCc1ccccc1` is ____.
Given back: 5.76

Asked: I would be grateful if you could share the reported pIC50 for `CCc1nc2cc(Cc3ccc(C(=O)NO)cc3)ccc2c(=O)n1CCc1ccccc1` .
Given back: 6.76

Asked: Reported pIC50, compound `Cc1nc2cc(/C=C/C(=O)NO)ccc2c(=O)n1Cc1ccccc1` : ____
Given back: 5.90

Asked: Entry under review: `CCc1nc2c(Cc3ccc(C(=O)NO)cc3)cccc2c(=O)n1CCc1ccccc1` . Reported pIC50?
Given back: 6.55

Asked: # input compound: `CCc1nc2cc(/C=C/C(=O)NO)ccc2c(=O)n1CCc1ccccc1` ; wanted: its pIC50
Given back: 5.93

Asked: Item under review: `Cc1nc2cc(/C=C/C(=O)NO)ccc2c(=O)n1CCc1c[nH]c2ccccc12` . Reported pIC50?
Given back: 5.80

Asked: Fill in: pIC50 of `CCc1nc2cc(/C=C/C(=O)NO)ccc2c(=O)n1CCCc1ccccc1` is ___
Given back: 5.88

Asked: May I ask what pIC50 has been recorded for `Cc1nc2c(/C=C/C(=O)NO)cccc2c(=O)n1-c1ccccc1` ?
Given back: 6.38

Asked: Would you kindly share the measured pIC50 for `CCc1nc2cc(F)c(/C=C/C(=O)NO)cc2c(=O)n1CCc1ccccc1` ?
Given back: 6.12

Asked: Which value of pIC50 has been reported for `O=C(/C=C/c1ccc2c(=O)n(CCc3ccccc3)cnc2c1)NO` in the records?
Given back: 6.22

Asked: // lookup pIC50 for `CCc1nc2cc(/C=C/C(=O)NO)ccc2c(=O)n1CCc1ccc(F)cc1`
Given back: 6.05

Asked: Can you look up the measured pIC50 of `Cc1nc2cccc(/C=C/C(=O)NO)c2c(=O)n1-c1ccccc1` for me?
Given back: 5.97

Asked: Bench note: what pIC50 did `Cc1nc2ccc(/C=C/C(=O)NO)cc2c(=O)n1-c1ccccc1` show?
Given back: 6.22
